This collection of values is drawn from ChEMBL document CHEMBL1201862.

- system: UniProtKB Q6QLK5
- Sequence (Q6QLK5 whole entry, the tested form may be a part): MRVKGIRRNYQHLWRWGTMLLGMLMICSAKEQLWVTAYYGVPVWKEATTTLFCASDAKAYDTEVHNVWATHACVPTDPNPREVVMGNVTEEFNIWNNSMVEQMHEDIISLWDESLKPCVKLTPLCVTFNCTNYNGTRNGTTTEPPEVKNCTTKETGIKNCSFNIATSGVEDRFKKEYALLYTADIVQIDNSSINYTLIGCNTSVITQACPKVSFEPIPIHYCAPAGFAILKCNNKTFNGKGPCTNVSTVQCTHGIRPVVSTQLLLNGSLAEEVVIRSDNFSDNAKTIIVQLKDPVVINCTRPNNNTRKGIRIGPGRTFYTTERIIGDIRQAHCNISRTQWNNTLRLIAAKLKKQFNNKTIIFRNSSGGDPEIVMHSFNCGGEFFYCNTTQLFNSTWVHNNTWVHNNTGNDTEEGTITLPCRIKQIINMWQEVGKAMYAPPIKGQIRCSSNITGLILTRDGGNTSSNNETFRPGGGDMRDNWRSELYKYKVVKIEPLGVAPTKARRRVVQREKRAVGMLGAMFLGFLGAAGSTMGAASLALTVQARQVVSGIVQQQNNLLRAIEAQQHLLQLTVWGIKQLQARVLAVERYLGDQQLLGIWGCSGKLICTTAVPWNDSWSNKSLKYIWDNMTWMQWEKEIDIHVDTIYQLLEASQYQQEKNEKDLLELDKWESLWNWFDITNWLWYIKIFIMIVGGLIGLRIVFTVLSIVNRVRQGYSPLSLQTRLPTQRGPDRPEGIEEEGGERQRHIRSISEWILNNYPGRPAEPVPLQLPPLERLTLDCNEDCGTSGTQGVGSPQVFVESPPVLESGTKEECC
- experimentDescription: inhibitors of HIV fusion peptide binding, primary screen, biochemical, uHTS, fluorescence dequenching (AID 1986)
Calls of active or inactive are those of the source. No stated cut-off is given here; in the data, actives have a measured IC50 and inactives only a lower limit.
Listed molecules paired with reported IC50
measuredAttribute: IC50

{"structureNotation": "CC(C)CS(=O)(=O)C1=NN2C(=N)/C(=C\\c3ccc(OC(=O)c4ccco4)cc3)C(=O)N=C2S1", "measuredAttribute": "IC50", "result": "12.8 µM (active)"}
{"structureNotation": "O=C(O)/C(CC(=O)c1ccc(Cl)cc1)=N/Nc1ccc([N+](=O)[O-])cc1[N+](=O)[O-]", "measuredAttribute": "IC50", "result": "20.8 µM (active)"}
{"structureNotation": "N#C/C(=C\\c1ccc(O)c([N+](=O)[O-])c1)c1nc2ccccc2s1", "measuredAttribute": "IC50", "result": "25.2 µM (active)"}
{"structureNotation": "Cc1ccc(NC(S)=NNc2ccc([N+](=O)[O-])cc2S(=O)(=O)Nc2ccccc2C(=O)O)cc1C", "measuredAttribute": "IC50", "result": "7.4 µM (active)"}
